TESTED_TARGET: hP2X4 (human purinergic P2X receptor subtype 4) (Homo sapiens)
Sequence (Q99571 1-404 isoform Q99571-2): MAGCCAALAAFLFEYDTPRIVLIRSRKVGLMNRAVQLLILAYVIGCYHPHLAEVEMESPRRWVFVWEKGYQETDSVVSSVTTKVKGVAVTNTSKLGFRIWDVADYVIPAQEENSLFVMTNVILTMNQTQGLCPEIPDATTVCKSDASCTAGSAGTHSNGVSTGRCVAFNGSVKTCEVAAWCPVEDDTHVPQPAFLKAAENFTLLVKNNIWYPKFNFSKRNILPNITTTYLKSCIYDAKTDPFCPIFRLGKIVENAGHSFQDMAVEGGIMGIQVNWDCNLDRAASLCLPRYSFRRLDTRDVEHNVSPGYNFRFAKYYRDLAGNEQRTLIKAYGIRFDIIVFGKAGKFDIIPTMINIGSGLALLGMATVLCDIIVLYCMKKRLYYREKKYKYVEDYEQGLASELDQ
ASSAY_COMMENT: FLIPR assay of intracellular calcium increase induced by activation of hP2X4 expressed in HEK293 cells (agonist BZ-ATP 2.5 μM)
Format: cell-based
CONDITION_DETAILS: HEK293 cells stably expressing hP2X4, FLIPR, class symbols, read-out: P2X4 IC50
pIC50: −log10 of the molar value.
The entries below are paired with their reported pIC50.

Using the record for COc1ccc(Cn2cc3c(S(C)(=N)=O)cc(NC(=O)Cc4ccccc4Cl)cc3n2)cc1 (centres unmarked) , report its pIC50. 5.30 to 6.70

---

ASSAY_COMMENT: In vitro metabolic stability, liver microsome incubation (human)
Type: in vitro ADME
CONDITION_DETAILS: human, liver microsomes; 1 mg/mL liver microsome protein, 37° C.; symbol NA; read-out: T1/2 in human liver microsome min
ASSAY_METRIC: half-life

Using the record for NS(=O)(=O)c1cc(NC(=O)Cc2ccccc2Cl)cc2nn(CC(F)F)cc12 [Compound 12-A] , report its half-life. > 106 h

---

Test system: HepG2 cells
ASSAY_COMMENT: In vitro cytotoxicity assay in HepG2 cells, CCK-8 method
CONDITION_DETAILS: read-out: HepG2 CC50, 48 h, CCK-8
ASSAY_METRIC: CC50

Using the record for COc1ccc(CN(Cc2ccc(OC)cc2)S(=O)(=O)c2cc(NC(=O)Cc3ccccc3Cl)cc3c2cnn3Cc2ccc(C#N)cc2)cc1 [Compound 91A] , report its CC50. > 200 µM

---

TESTED_TARGET: hP2X4 (human purinergic P2X receptor subtype 4) (Homo sapiens, UniProt Q99571)
ASSAY_COMMENT: FLIPR assay of intracellular calcium increase induced by activation of hP2X4 expressed in HEK293 cells (agonist BZ-ATP 2.5 μM)
Format: cell-based
CONDITION_DETAILS: HEK293 cells stably expressing hP2X4, FLIPR, numeric values, read-out: P2X4 IC50
The entries below are paired with their reported IC50.

Using the record for NS(=O)(=O)c1cc(NC(=O)Cc2ccccc2Cl)cc2nn(CC3CCC3)cc12 [Compound 24-A] , report its IC50. 1.6 nM

Using the record for CC(C)Cn1cc2c(S(N)(=O)=O)cc(NC(=O)Cc3ccccc3Cl)cc2n1 [Compound 7-A] , report its IC50. 4.8 nM

Using the record for NS(=O)(=O)c1cc(NC(=O)Cc2ccccc2Cl)cc2cn(C(F)F)nc12 [Compound 49] , report its IC50. 89.5 nM

These entries and their values trace back to patent US12503444B2.
